The reader will find reported IC50 values listed item by item below.
# TARGET OR SYSTEM: pseudo-kinase domain (JH2) of human V617F mutant JAK2 (Homo sapiens (Human), UniProt O60674, F794H/V617F/W659A/W777A)
# Sequence (O60674 536-812 V617F/W659A/W777A/F794H): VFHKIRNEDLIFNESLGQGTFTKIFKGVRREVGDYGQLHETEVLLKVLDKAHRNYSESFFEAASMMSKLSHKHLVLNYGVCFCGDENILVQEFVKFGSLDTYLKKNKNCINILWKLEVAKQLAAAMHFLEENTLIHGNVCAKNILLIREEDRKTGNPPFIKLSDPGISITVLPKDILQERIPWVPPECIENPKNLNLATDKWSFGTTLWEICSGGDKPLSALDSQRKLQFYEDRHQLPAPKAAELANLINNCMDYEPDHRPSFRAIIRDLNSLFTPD
# ASSAY PROTOCOL: JAK2 LanthaScreen JH2-V617F Binding Assay
# CONDITION NOTES: JAK2 JH2-V617F 0.26 nM, 50 nM tracer, 1 hour at 25° C.; read-out: JH2BINDING_V617F IC50
Structures can show the parent of a compound that is named as a salt.
RECORDED METRIC: IC50

- COMPOUND: "COc1c(Nc2cc(NC(=O)C3CC3)nc3cc[nH]c(=O)c23)cccc1-c1cn[nH]c1 [Example 1]"
  RECORDED VALUE: "100 to 500 nM"
- COMPOUND: "COc1c(Nc2cc(NC(=O)C3CC3)nc3cc[nH]c(=O)c23)cccc1-c1cnn(C2CCCC2)c1 [Example 3, Trifluoroacetic Acid Salt]"
  RECORDED VALUE: "100 to 500 nM"
- COMPOUND: "O=C(Nc1cc(Nc2ccccc2CO)c2c(=O)[nH]ccc2n1)C1CC1 [Example 23, Trifluoroacetic Acid Salt]"
  RECORDED VALUE: "> 10000 nM"
- COMPOUND: "Cc1[nH]ncc1-c1c(Cl)cccc1Nc1cc(NC(=O)C2CC2)nc2cc[nH]c(=O)c12 [Example 17, Trifluoroacetic Acid Salt]"
  RECORDED VALUE: "1000 to 10000 nM"
- COMPOUND: "CSc1c(Nc2cc(NC(=O)C3CC3)nc3cc[nH]c(=O)c23)cccc1-c1cnn(C2CCOCC2)c1 [Example 12, Trifluoroacetic Acid Salt]"
  RECORDED VALUE: "500 to 1000 nM"
- COMPOUND: "COc1c(Nc2cc(NC(=O)C3CC3)nc3cc[nH]c(=O)c23)cccc1-c1cnn(C(C)C(N)=O)c1 (centres unmarked) [Example 8, Trifluoroacetic Acid Salt]"
  RECORDED VALUE: "≤ 100 nM"
- COMPOUND: "COc1ccccc1Nc1cc(NC(=O)C2CC2)nc2cc[nH]c(=O)c12 [Example 21]"
  RECORDED VALUE: "> 10000 nM"
- COMPOUND: "CCn1ccc2cccc(Nc3cc(NC(=O)C4CC4)nc4cc[nH]c(=O)c34)c21 [Example 9, Trifluoroacetic Acid Salt]"
  RECORDED VALUE: "1000 to 10000 nM"
- COMPOUND: "COc1c(Nc2cc(NC(=O)C3CC3)nc3cc[nH]c(=O)c23)cccc1-c1cnn(C2CCOCC2)c1 [Example 5, Trifluoroacetic Acid Salt]"
  RECORDED VALUE: "≤ 100 nM"
- COMPOUND: "O=C(Nc1cc(Nc2cccc(-c3cnn(C4CCOCC4)c3)c2)c2c(=O)[nH]ccc2n1)C1CC1 [Example 6, Trifluoroacetic Acid Salt]"
  RECORDED VALUE: "> 10000 nM"
- COMPOUND: "COc1cc(-c2cnn(C3CCOCC3)c2)ccc1Nc1cc(NC(=O)C2CC2)nc2cc[nH]c(=O)c12 [Example 7, Trifluoroacetic Acid Salt]"
  RECORDED VALUE: "> 10000 nM"
- COMPOUND: "O=C(Nc1cc(Nc2cccc(C(F)(F)F)c2-c2cn[nH]c2)c2c(=O)[nH]ccc2n1)C1CC1 [Example 18, Trifluoroacetic Acid Salt]"
  RECORDED VALUE: "500 to 1000 nM"
- COMPOUND: "COc1c(Nc2cc(NC(=O)C3CC3)nc3cc[nH]c(=O)c23)cccc1N1CCN(S(=O)(=O)C2CC2)CC1 [Example 4, Trifluoroacetic Acid Salt]"
  RECORDED VALUE: "100 to 500 nM"
- COMPOUND: "COc1c(Nc2cc(NC(=O)C3CC3)nc3ccn(C)c(=O)c23)cccc1-c1cnc(C2CCOCC2)s1 [Example 10, Trifluoroacetic Acid Salt]"
  RECORDED VALUE: "1000 to 10000 nM"
- COMPOUND: "O=C(Nc1cc(Nc2cccc(Cl)c2-c2cn[nH]c2)c2c(=O)[nH]ccc2n1)C1CC1 [Example 16, Trifluoroacetic Acid Salt]"
  RECORDED VALUE: "500 to 1000 nM"
- COMPOUND: "COc1c(Nc2cc(NC(=O)C3CC3)nc3cc[nH]c(=O)c23)cccc1C(F)(F)F [Example 14, Trifluoroacetic Acid Salt]"
  RECORDED VALUE: "100 to 500 nM"
- COMPOUND: "COc1c(Nc2cc(NC(=O)C3CC3)nc3cc[nH]c(=O)c23)cccc1C(=O)NCC1CCOCC1 [Example 11, Trifluoroacetic Acid Salt]"
  RECORDED VALUE: "1000 to 10000 nM"

Values from patent US11691971B2
